Molecular target: 4H_GCN4
Sequence (chain, as listed by the source): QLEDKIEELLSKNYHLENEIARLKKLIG
Test: two-hybrid library CCmax;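 note: natural log of median RNA to DNA barcode read ratio; higher means stronger binding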
property: interaction score

Observe how each entry below is paired with its result.
{"binder": "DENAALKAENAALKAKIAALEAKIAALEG [4H1765-AA]", "reported": -1.69}
{"binder": "DEIAALEAEIAALEAKNAALKAEIAALKG [4H58-AA]", "reported": 0.011}
{"binder": "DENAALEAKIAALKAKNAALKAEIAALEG [4H1401-AA]", "reported": -1.67}
{"binder": "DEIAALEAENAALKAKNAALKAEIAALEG [4H249-AA]", "reported": -1.66}
{"binder": "DEIAALKAEIAALEAENAALEAKNAALEG [4H535-AA]", "reported": -1.41}

P = DKIAALKAEIAALEAKIAALEAKNAALKG [4H2600-AA]
Q = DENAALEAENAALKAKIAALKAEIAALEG [4H1257-AA]
[Q] Would you let me know which has the greater interaction score value, P or Q ? Lab log: write the label of the selected item as the result.
[A] P

Attribution: paper PMC10397247
